Hello, the source for this data is patent US11566007B2, in case you need it.

System: NCI-H358 (K-Ras G12C)
ASSAY COMMENT: CellTiter-Glo cell viability assay, NCI-H358
Format: cell-based, human
DETAILS: NCI-H358, 5-day treatment; class symbols; read-out: Additional H358 Cell Viability assay data (K-Ras G12C, IC50)
pIC50: −log10 of the molar value.
pIC50 listing for selected compounds.

COMPOUND: C=CC(=O)N1CC[C@H](C(=O)N(C)[C@H](C(=O)N[C@H]2Cc3cc(CF)cc(c3)-c3ccc4c(c3)c(c(-c3cccnc3[C@H](C)OC)n4CC)CC(C)(C)COC(=O)[C@@H]3CCCN(N3)C2=O)C(C)C)C1 (atropisomer, axis not shown) [Example A504]
pIC50: > 8.00
--
COMPOUND: CCn1c(-c2cccnc2COC)c2c3cc(ccc31)-c1cc(O)cc(c1)C[C@H](NC(=O)[C@H](C(C)C)N(C)C(=O)[C@H]1CCC(C(=O)/C=C\CN(C)C)C1)C(=O)N1CCC[C@H](N1)C(=O)OCC(C)(C)C2 (stereo partly shown) [Example A164]
pIC50: 6.00 to 7.00
--
COMPOUND: CCn1c(-c2cccnc2[C@H](C)OC)c2c3cc(ccc31)-c1cc(O)cc(c1)C[C@H](NC(=O)[C@H](C(C)C)N(C)C(=O)c1nc(NC(=O)/C=C/CN(C)C)cs1)C(=O)N1CCC[C@H](N1)C(=O)OCC(C)(C)C2 [Example A258]
pIC50: 6.00 to 7.00
--
COMPOUND: CCn1c(-c2cccnc2[C@H](C)OC)c2c3cc(ccc31)N1CCC[C@@H](C[C@H](NC(=O)[C@H](C(C)C)N(C)C(=O)C3(F)CCN(C(=O)C#CC(C)(C)N(C)C)CC3)C(=O)N3CCC[C@H](N3)C(=O)OCC(C)(C)C2)C1 (atropisomer, axis not shown) [Example A616]
pIC50: > 8.00

----------
SYSTEM NAME: KRAS Q61H (Homo sapiens (Human), UniProt P01116+P62937, Q61H)
Sequence (P01116-2 other isoform, or with tags, fused parts or gaps Q61H): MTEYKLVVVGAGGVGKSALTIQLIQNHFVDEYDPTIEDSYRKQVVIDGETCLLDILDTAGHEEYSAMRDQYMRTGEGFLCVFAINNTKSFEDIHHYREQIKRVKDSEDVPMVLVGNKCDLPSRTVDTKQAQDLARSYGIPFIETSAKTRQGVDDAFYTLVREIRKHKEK
Sequence (P62937 whole entry): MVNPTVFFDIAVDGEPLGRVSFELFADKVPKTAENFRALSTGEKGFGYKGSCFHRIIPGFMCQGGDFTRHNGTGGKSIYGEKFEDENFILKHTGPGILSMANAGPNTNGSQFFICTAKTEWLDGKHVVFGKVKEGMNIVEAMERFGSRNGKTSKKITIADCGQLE
ASSAY COMMENT: Ras-Raf (BRAF RBD) disruption / FRET / MOA assay, KRAS Q61H
Format: biochemical
DETAILS: Ras-Raf disruption/FRET/MOA assay; class symbols; read-out: KRAS Q61H FRET data IC50
pIC50: −log10 of the molar value.

COMPOUND: CCn1c(-c2cccnc2[C@H](C)OC)c2c3cc(ccc31)C1=CCCN(C1)C[C@H](NC(=O)[C@H](C(C)C)N(C)C(=O)C1(F)CCN(C(=O)C#CC(C)(C)N(C)C)CC1)C(=O)N1CCC[C@H](N1)C(=O)OCC(C)(C)C2 (atropisomer, axis not shown)
pIC50: 6.00 to 7.00

COMPOUND: C=CC(=O)N1CC[C@H](C(=O)N(C)[C@H](C(=O)NC2C[C@@H]3CN(CCO3)c3ccc4c(c3)c(c(-c3cccnc3[C@H](C)OC)n4CC)CC(C)(C)COC(=O)[C@@H]3CC(Br)CN(N3)C2=O)C(C)C)C1 (stereo partly drawn)
pIC50: < 5.00

COMPOUND: C=CC(=O)N1CCO[C@H]2CN(C(=O)N(C)[C@H](C(=O)N[C@H]3Cc4nc(cs4)-c4ccc5c(c4)c(c(-c4cccnc4[C@H](C)OC)n5CC)CC(C)(C)COC(=O)[C@@H]4CCCN(N4)C3=O)C(C)C)C[C@H]21 (atropisomer, axis not shown)
pIC50: 6.00 to 7.00

COMPOUND: C=CC(=O)N(C)C[C@@H]1CCN(C(=O)N(C)[C@H](C(=O)N[C@H]2Cc3nc(cs3)-c3ccc4c(c3)c(c(-c3cccnc3[C@H](C)OC)n4CC)CC(C)(C)COC(=O)[C@@H]3CCCN(N3)C2=O)C(C)C)C1 (atropisomer, axis not shown)
pIC50: 7.00 to 8.00

COMPOUND: CO[C@@H](C)c1ncccc1-c1c2c3cc(ccc3n1CC(F)(F)F)-c1csc(n1)C[C@H](NC(=O)CCOC1CN(C(=O)C#CC(C)(C)N3CCC3)C1)C(=O)N1CCC[C@H](N1)C(=O)OCC(C)(C)C2 (atropisomer, axis not shown)
pIC50: 5.00 to 6.00

COMPOUND: C=CC(=O)NC[C@H]1CCN1C(=O)N(C)[C@H](C(=O)N[C@H]1Cc2nc(cs2)-c2ccc3c(c2)c(c(-c2cccnc2[C@H](C)OC)n3CC)CC(C)(C)COC(=O)[C@@H]2CCCN(N2)C1=O)C(C)C (atropisomer, axis not shown)
pIC50: 6.00 to 7.00

COMPOUND: CCn1c(-c2cccnc2[C@H](C)OC)c2c3cc(ccc31)-c1cccc(c1)C[C@H](NC(=O)[C@H](C(C)C)N1CO[C@]3(CCN(C(=O)C#CC(C)(C)N4CCC4)C3)C1=O)C(=O)N1CCC[C@H](N1)C(=O)OCC(C)(C)C2 (atropisomer, axis not shown)
pIC50: 6.00 to 7.00

COMPOUND: CCn1c(-c2cccnc2[C@H](C)OC)c2c3cc(ccc31)-c1cccc(c1)C[C@H](NC(=O)[C@@H](COC1CN(C(=O)C#CC(C)(C)N(C)C(C)C)C1)C(C)C)C(=O)N1CCC[C@H](N1)C(=O)OCC(C)(C)C2 (atropisomer, axis not shown)
pIC50: < 5.00

COMPOUND: C=CC(=O)N1CCO[C@H]2CCN(C(=O)N(C)[C@H](C(=O)N[C@H]3Cc4nc(cs4)-c4ccc5c(c4)c(c(-c4cccnc4[C@H](C)OC)n5CC)CC(C)(C)COC(=O)[C@@H]4CCCN(N4)C3=O)C(C)C)C[C@@H]21 (atropisomer, axis not shown)
pIC50: 7.00 to 8.00

COMPOUND: CCn1c(-c2cccnc2[C@H](C)OC)c2c3cc(ccc31)-c1cccc(c1)C[C@H](NC(=O)[C@@H](COC1CN(C(=O)C#CC(C)(C)O)C1)C(C)C)C(=O)N1CCC[C@H](N1)C(=O)OCC(C)(C)C2 (atropisomer, axis not shown)
pIC50: 5.00 to 6.00

COMPOUND: C=CC(=O)N1CC(OC[C@H](C(=O)N[C@H]2Cc3cccc(c3)-c3ccc4c(c3)c(c(-c3cccnc3[C@H](C)OC)n4CC(F)(F)F)CC(C)(C)COC(=O)[C@@H]3CCCN(N3)C2=O)C(C)C)C1 (atropisomer, axis not shown)
pIC50: 6.00 to 7.00

COMPOUND: C=CC(=O)N1CC[C@H](C(=O)N(C)[C@H](C(=O)N[C@H]2Cc3cc(O)cc(c3)-c3ccc4c(c3)c(c(-c3cccnc3)n4C(C)(C)C#N)CC(C)(C)COC(=O)[C@@H]3CCCN(N3)C2=O)C(C)C)C1
pIC50: 7.00 to 8.00

COMPOUND: C=CC(=O)N1C[C@@H](C)[C@H](N(C)C(=O)N(C)[C@H](C(=O)N[C@H]2Cc3nc(cs3)-c3ccc4c(c3)c(c(-c3cccnc3[C@H](C)OC)n4CC)CC(C)(C)COC(=O)[C@@H]3CCCN(N3)C2=O)C(C)C)C1 (atropisomer, axis not shown)
pIC50: 6.00 to 7.00

COMPOUND: C=CC(=O)N1CCOC2(C1)CN(C(=O)N(C)[C@H](C(=O)N[C@H]1Cc3cccc(c3)-c3ccc4c(c3)c(c(-c3cccnc3[C@H](C)OC)n4CC(F)(F)F)CC(C)(C)COC(=O)[C@@H]3CCCN(N3)C1=O)C(C)C)C2 (atropisomer, axis not shown)
pIC50: 6.00 to 7.00

COMPOUND: CCn1c(-c2cccnc2)c2c3cc(ccc31)-c1csc(c1)C[C@H](NC(=O)[C@H](C(C)C)N(C)C(=O)[C@H]1CCN(C(=O)C#CCN3CCOCC3)C1)C(=O)N1CCC[C@H](N1)C(=O)OCC(C)(C)C2
pIC50: < 5.00
